B1: glmS ribozyme (parent)
chain: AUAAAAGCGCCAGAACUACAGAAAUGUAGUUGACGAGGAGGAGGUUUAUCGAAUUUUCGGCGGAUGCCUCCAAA

# Variants of: B1
# Method Summary: self-cleavage kobs at 640 uM GlcN6P; higher = faster cleavage; RNA array
# Condition Set: with glucosamine-6-phosphate
This sample holds only a part of the variants without activity.
Value Kind: self-cleavage kobs at 640 uM GlcN6P (s⁻¹)
Use s⁻¹ as the unit, but write only the number.

-- ask Answer with the recorded self-cleavage kobs at 640 uM GlcN6P of AUAAAAGCGCCCGAUUUACAGAAAUGUAGUUGACGAGGAGGAGGUUUAUCGAAUUUUCGGCGGAUGCCUUCAAA [A12C A15U C16U C70U] only.
-- reply 9.57e-05

-- ask Supply reported self-cleavage kobs at 640 uM GlcN6P belonging to this variant: AUAAAAGCGCCAGAACUACAGAAAUGUAGUUGACGAGGAGGAGGCUUAUCGAAUUUUCGGCGGAUGCGUCCAAA [U45C C68G]
-- reply 4.14e-05

-- ask Identify the reported self-cleavage kobs at 640 uM GlcN6P for the following entry. AUAAAAGCGCCAGAACUACAGAAAUGUAGUUGACGAGGAGGAGGUUUAUCGAAUUUGCGGCCGAUGCUUGCAAA [U57G G62C C68U C70G]
-- reply 4.22e-05

-- ask Dear colleague, please send me the reported self-cleavage kobs at 640 uM GlcN6P for AUAAAAGCGCCAGGACUACAGAAAUGUAGUUGACGAGGAGGAGGUUUAUCGAAUUUUCGGCGGAUACCUCCAAA [A14G G66A] when you can.
-- reply 0.00997

-- ask Please give the documented self-cleavage kobs at 640 uM GlcN6P of AUAAAAGCGCCAGAACUACAGAAAUGUAGUUGACGAGGAGGAGGUUUAUCGAAUUUUCGGCGGACGCCUUCAAA [U65C C70U]
-- reply 0.000169
